- TEST TARGET: 5HT2C receptor (Rattus norvegicus, UniProt P08909)
- Construct: from tissue; host or cells: living rats (in vivo, s.c. dosing)
- Sequence (P08909 33-460): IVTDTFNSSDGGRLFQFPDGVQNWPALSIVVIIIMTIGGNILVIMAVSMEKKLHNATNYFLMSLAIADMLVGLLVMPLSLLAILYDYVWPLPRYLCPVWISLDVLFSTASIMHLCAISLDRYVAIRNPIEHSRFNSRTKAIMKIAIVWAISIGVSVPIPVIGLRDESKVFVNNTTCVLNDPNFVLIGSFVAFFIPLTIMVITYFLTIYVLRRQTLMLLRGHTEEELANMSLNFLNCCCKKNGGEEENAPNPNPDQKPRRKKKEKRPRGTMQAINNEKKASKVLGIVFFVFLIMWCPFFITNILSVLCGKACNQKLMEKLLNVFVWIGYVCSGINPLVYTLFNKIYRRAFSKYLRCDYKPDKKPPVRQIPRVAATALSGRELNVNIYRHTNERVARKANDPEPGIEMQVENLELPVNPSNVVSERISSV
- MEASUREMENT DESCRIPTION: Penile erection (rats)
- Type: in vivo
- RECORDED CONDITIONS: sc, 0.75 h, s.c., within 45 minutes after administration, read-out: ED50 penile erection, s.c.

{"columns": ["COMPOUND", "ED50"],
 "data": [
  ["CCOc1ccc2c(c1)-c1c(cnn1C[C@H](C)N)C2 [Example 18]", "0.7 mg/kg"],
  ["CCOc1ccc2c(c1)-c1c(cnn1CC(C)N)C2 (racemic) [Example 13]", "0.5 mg/kg"],
  ["COc1ccc2c(c1)-c1c(cnn1CC(C)N)C2 (racemic) [Example 1]", "0.32 mg/kg"],
  ["COc1ccc2c(c1)-c1c(cnn1C[C@H](C)N)C2 [Example 2]", "0.32 mg/kg"]
]}

###

- TEST TARGET: 5HT2C receptor
- MEASUREMENT DESCRIPTION: [3H]-5-HT binding assay, 5HT2C receptor (test method b)
- RECORDED CONDITIONS: radioligand [3H]-5-HT, pki = -log10 Ki
Measured pKi, test method b, listed per entry.

{"columns": ["COMPOUND", "TEST TARGET", "pKi, test method b"],
 "data": [
  ["COc1ccc2c(c1)-c1c(cnn1CC(C)N)C2(C)C (racemic) [Example 6]", "5HT2C receptor", 8.33],
  ["COc1ccc2c(c1)-c1c(cnn1C[C@H](C)N)C2(C)C [Example 4]", "5HT2C receptor", 8.65],
  ["CCOc1ccc2c(c1)-c1c(cnn1C[C@@H](C)N)C2 [Example 17]", "5HT2C receptor", 7.40],
  ["COc1ccc2c(c1)Cc1cnn(CC(C)N)c1-2 (racemic) [Example 14]", "5HT2C receptor", 6.70],
  ["Cc1ccc2c(c1)-c1c(cnn1C[C@H](C)N)C2(C)C [Example 3]", "5HT2C receptor", 8.32],
  ["COc1ccc2ccc3cnn(CC(C)N)c3c2c1 (racemic) [Example 16]", "5HT2C receptor", 8.94],
  ["COc1ccc2c(c1)-c1c(cnn1C[C@H](C)N)C2 [Example 2]", "5HT2C receptor", 8.57],
  ["Cc1ccc2c(c1)-c1c(cnn1CC(C)N)C2 (racemic) [Example 10]", "5HT2C receptor", 8.32],
  ["CCOc1ccc2c(c1)-c1c(cnn1C[C@H](C)N)C2 [Example 18]", "5HT2C receptor", 8.48],
  ["COc1ccc2c(c1)-c1c(cnn1C[C@@H](C)N)C2 [Example 7]", "5HT2C receptor", 7.73]
]}

###

- TEST TARGET: recombinant human-5HT1A receptors (Homo sapiens)
- Construct: expressed in transfected cells; host or cells: 3T3 cells of mice (membranes)
- MEASUREMENT DESCRIPTION: Displacement assay with [3H]-5-HT (1 nM) on recombinant human 5HT1A receptors expressed in 3T3 cells of mice (test method a)
- Format: binding
- RECORDED CONDITIONS: 5HT1A; radioligand [3H]-5-HT (1 nM); pki = -log10 Ki; read-out: pKi, test method a (converted)
Kindly apply the following: true (1) if Ki is less than 2000 nM, false (0) in every other case.

{"columns": ["COMPOUND", "TEST TARGET", "CLASS ASSIGNMENT"],
 "data": [
  ["Cc1ccc2c(c1)-c1c(cnn1CC(C)N)C2(C)C (racemic) [Example 5]", "recombinant human-5HT1A receptors (Homo sapiens)", "true (1)"],
  ["Cc1ccc2c(c1)-c1c(cnn1CC(C)N)C2 (racemic) [Example 10]", "recombinant human-5HT1A receptors (Homo sapiens)", "true (1)"],
  ["CC(N)Cn1ncc2c1-c1cc(F)ccc1C2 (racemic) [Example 11]", "recombinant human-5HT1A receptors (Homo sapiens)", "true (1)"],
  ["CCOc1ccc2c(c1)-c1c(cnn1CC(C)N)C2 (racemic) [Example 13]", "recombinant human-5HT1A receptors (Homo sapiens)", "true (1)"],
  ["CCOc1ccc2c(c1)-c1c(cnn1C[C@H](C)N)C2 [Example 18]", "recombinant human-5HT1A receptors (Homo sapiens)", "true (1)"],
  ["COc1ccc2c(c1)Cc1cnn(CC(C)N)c1-2 (racemic) [Example 14]", "recombinant human-5HT1A receptors (Homo sapiens)", "false (0)"],
  ["Cc1ccc2c(c1)-c1c(cnn1C[C@H](C)N)C2(C)C [Example 3]", "recombinant human-5HT1A receptors (Homo sapiens)", "false (0)"]
]}

###

- TEST TARGET: 5HT2C receptor (Rattus norvegicus, UniProt P08909)
- Construct: from tissue; host or cells: living rats (in vivo, s.c. dosing)
- MEASUREMENT DESCRIPTION: Penile erection (rats)
- Format: in vivo
- RECORDED CONDITIONS: po, 0.75 h, p.o., within 45 minutes after administration, read-out: ED50 penile erection, p.o.
Measured ED50, listed per entry.

{"columns": ["COMPOUND", "UNIT LABEL", "ED50"],
 "data": [
  ["CCOc1ccc2c(c1)-c1c(cnn1CC(C)N)C2 (racemic)", "mg/kg", 2.7],
  ["COc1ccc2c(c1)-c1c(cnn1C[C@H](C)N)C2", "mg/kg", 1.4],
  ["COc1ccc2c(c1)-c1c(cnn1CC(C)N)C2 (racemic)", "mg/kg", 3.2],
  ["CCOc1ccc2c(c1)-c1c(cnn1C[C@H](C)N)C2", "mg/kg", 2.3]
]}

###

Observed pKi for 5HT2A receptor (Homo sapiens, UniProt P28223), reported per entry below.
pKi: −log10 of the molar value.
ATTRIBUTE MEASURED: pKi

{"columns": ["MOLECULE", "ATTRIBUTE MEASURED", "OBSERVED MEASUREMENT"],
 "data": [
  ["Cc1ccc2c(c1)-c1c(cnn1C[C@H](C)N)C2(C)C", "pKi", 6.64],
  ["COc1ccc2c(c1)-c1c(cnn1C[C@@H](C)N)C2", "pKi", 6.44],
  ["CCOc1ccc2c(c1)-c1c(cnn1C[C@@H](C)N)C2", "pKi", 6.68],
  ["Cc1ccc2c(c1)-c1c(cnn1CC(C)N)C2(C)C (racemic)", "pKi", 6.72],
  ["COc1ccc2c(c1)-c1c(cnn1CC(C)N)CC2.O=C(O)/C=C/C(=O)O (racemic)", "pKi", 7.09],
  ["COc1ccc2c(c1)Cc1cnn(CC(C)N)c1-2 (racemic)", "pKi", 5.81],
  ["COc1ccc2c(c1)-c1c(cnn1CC(C)N)C2(C)C (racemic)", "pKi", 7.31],
  ["CCOc1ccc2c(c1)-c1c(cnn1C[C@H](C)N)C2", "pKi", 7.31],
  ["CCOc1ccc2c(c1)-c1c(cnn1CC(C)N)C2 (racemic)", "pKi", 7.31],
  ["CC(N)Cn1ncc2c1-c1cc(F)ccc1C2(C)C (racemic)", "pKi", 6.85],
  ["Cc1ccc2c(c1)-c1c(cnn1CC(C)N)C2 (racemic)", "pKi", 7.30],
  ["COc1ccc2c(c1)-c1c(cnn1C[C@H](C)N)C2", "pKi", 7.31],
  ["COc1ccc2ccc3cnn(CC(C)N)c3c2c1 (racemic)", "pKi", 7.60],
  ["COc1ccc2c(c1)-c1c(c(C)nn1CC(C)N)C2 (racemic)", "pKi", 6.08],
  ["CC(N)Cn1ncc2c1-c1cc(F)ccc1C2 (racemic)", "pKi", 6.58],
  ["COc1ccc2c(c1)-c1c(cnn1CC(C)N)C2 (racemic)", "pKi", 7.03],
  ["COc1ccc2c(c1)-c1c(cnn1C[C@H](C)N)C2(C)C", "pKi", 7.43]
]}

###

- TEST TARGET: recombinant human-5HT1A receptors (Homo sapiens, UniProt P08908)
- Construct: expressed in transfected cells; host or cells: 3T3 cells of mice (membranes)
- Sequence (P08908 1-422): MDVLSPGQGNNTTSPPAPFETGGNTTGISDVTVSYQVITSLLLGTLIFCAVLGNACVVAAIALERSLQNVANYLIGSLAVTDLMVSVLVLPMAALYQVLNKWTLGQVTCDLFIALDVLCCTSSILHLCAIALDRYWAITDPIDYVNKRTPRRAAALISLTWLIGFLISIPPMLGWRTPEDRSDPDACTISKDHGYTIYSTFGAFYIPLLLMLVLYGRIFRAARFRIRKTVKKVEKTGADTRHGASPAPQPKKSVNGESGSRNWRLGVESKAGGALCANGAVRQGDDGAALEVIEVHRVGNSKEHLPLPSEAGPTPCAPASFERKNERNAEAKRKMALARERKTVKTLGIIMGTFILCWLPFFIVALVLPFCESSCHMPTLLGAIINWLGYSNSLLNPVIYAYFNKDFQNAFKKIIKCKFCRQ
- MEASUREMENT DESCRIPTION: Displacement assay with [3H]-5-HT (1 nM) on recombinant human 5HT1A receptors expressed in 3T3 cells of mice (test method a)
- Format: binding
pKi: −log10 of the molar value.

{"columns": ["COMPOUND", "pKi"],
 "data": [
  ["COc1ccc2c(c1)-c1c(cnn1CC(C)N)C2(C)C (racemic) [Example 6]", 5.74],
  ["COc1ccc2c(c1)-c1c(cnn1C[C@@H](C)N)C2 [Example 7]", 5.61],
  ["CC(N)Cn1ncc2c1-c1cc(F)ccc1C2(C)C (racemic) [Example 12]", 5.91],
  ["COc1ccc2c(c1)-c1c(c(C)nn1CC(C)N)C2 (racemic) [Example 8]", 5.17],
  ["COc1ccc2c(c1)-c1c(cnn1C[C@H](C)N)C2(C)C [Example 4]", 5.58],
  ["COc1ccc2c(c1)-c1c(cnn1C[C@H](C)N)C2 [Example 2]", 6.47],
  ["COc1ccc2ccc3cnn(CC(C)N)c3c2c1 (racemic) [Example 16]", 6.70],
  ["COc1ccc2c(c1)-c1c(cnn1CC(C)N)C2 (racemic) [Example 1]", 6.45],
  ["COc1ccc2c(c1)-c1c(cnn1CC(C)N)CC2.O=C(O)/C=C/C(=O)O (racemic) [Example 15]", 5.89]
]}
